- Assay Comment: SRB cytotoxicity in non-tumor porcine liver primary cell culture, dark and after irradiation
- Format: cell-based
- Condition Details: pig, PLP2 porcine liver primary cell culture (non-tumor), Dark; non-tumor cells; mean ± SD
Kindly state GI50 for each of the entries shown.

Input: GI50 for CCN1C(=CC2=C(N)C(=Cc3sc4cc(I)ccc4[n+]3CC)C2=O)Sc2cc(I)ccc21.[I-] ?
Output: 17.5 µM

Input: GI50 for CCN1C(=CC2=C(N(C)CCO)C(=Cc3sc4cc(I)ccc4[n+]3CC)C2=O)Sc2cc(I)ccc21.[I-] ?
Output: 11.9 µM

Input: GI50 for CCN1C(=CC2=C(NC)C(=Cc3sc4cc(I)ccc4[n+]3CC)C2=O)Sc2cc(I)ccc21.[I-] ?
Output: 5.7 µM

Input: GI50 for CCN1C(=CC2=C(N(CCO)CCO)C(=Cc3sc4cc(I)ccc4[n+]3CC)C2=O)Sc2cc(I)ccc21.[I-] ?
Output: 22 µM

Input: GI50 for CCN1C(=CC2=C(NCCO)C(=Cc3sc4cc(I)ccc4[n+]3CC)C2=O)Sc2cc(I)ccc21.[I-] ?
Output: > 25 µM
